- tested system: sweet taste receptor TAS1R2/R3 (TAS1R2) (Homo sapiens, UniProt Q7RTX0+Q8TE23)
- Construct: with TAS1R3
- Sequence (Q8TE23 20-839): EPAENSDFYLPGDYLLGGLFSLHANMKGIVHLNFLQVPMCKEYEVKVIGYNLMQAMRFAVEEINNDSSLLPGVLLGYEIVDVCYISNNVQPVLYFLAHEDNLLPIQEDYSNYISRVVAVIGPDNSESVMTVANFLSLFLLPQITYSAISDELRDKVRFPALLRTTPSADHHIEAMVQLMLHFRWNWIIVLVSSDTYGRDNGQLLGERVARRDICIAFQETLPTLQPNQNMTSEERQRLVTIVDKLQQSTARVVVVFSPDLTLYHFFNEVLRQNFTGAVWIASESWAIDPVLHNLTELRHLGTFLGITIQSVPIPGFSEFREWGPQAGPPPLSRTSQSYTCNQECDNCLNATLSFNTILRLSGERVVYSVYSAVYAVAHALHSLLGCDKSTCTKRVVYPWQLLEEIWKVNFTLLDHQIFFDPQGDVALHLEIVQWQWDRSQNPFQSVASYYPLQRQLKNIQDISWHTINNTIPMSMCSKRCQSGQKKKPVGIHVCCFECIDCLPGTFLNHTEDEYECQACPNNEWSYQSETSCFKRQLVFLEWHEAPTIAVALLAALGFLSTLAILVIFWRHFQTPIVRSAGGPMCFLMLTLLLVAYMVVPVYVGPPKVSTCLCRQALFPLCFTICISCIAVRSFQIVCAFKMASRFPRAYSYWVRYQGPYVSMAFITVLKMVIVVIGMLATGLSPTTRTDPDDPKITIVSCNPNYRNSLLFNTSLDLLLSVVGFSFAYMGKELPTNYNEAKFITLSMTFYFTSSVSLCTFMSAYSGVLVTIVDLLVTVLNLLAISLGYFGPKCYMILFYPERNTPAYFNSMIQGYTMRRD
- Sequence (Q7RTX0 21-852): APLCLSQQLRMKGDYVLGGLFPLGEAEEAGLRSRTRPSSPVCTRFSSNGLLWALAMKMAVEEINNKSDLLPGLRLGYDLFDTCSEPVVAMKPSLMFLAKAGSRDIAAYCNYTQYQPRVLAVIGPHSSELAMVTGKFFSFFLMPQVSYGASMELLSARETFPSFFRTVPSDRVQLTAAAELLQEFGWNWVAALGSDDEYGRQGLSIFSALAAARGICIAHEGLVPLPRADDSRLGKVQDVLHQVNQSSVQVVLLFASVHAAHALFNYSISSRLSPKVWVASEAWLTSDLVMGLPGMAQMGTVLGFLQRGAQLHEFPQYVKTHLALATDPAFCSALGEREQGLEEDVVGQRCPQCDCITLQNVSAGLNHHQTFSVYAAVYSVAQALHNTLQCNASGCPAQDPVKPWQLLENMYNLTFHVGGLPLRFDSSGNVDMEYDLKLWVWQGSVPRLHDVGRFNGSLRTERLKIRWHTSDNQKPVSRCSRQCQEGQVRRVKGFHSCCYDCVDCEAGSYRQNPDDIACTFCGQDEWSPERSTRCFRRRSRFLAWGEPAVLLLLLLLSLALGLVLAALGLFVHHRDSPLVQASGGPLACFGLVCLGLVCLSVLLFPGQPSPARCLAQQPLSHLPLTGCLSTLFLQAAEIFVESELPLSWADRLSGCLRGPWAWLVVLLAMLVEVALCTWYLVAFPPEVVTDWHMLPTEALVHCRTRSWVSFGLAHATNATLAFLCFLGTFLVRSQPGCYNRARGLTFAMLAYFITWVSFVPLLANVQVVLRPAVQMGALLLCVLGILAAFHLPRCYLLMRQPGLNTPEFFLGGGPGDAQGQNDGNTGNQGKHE
- test summary: calcium (Twitch2B FRET) response in reverse-transfected HEK293-Gα[…]GUST44 receptor array, normalized against umami receptor signal
- Type: cell-based
outcome measure: EC50
Enter the number, and then the unit.

What value of EC50 has been recorded for this entry: OC[C@H]1O[C@@](CO)(O[C@H]2O[C@H](CO)[C@@H](O)[C@H](O)[C@H]2O)[C@@H](O)[C@@H]1O [sucrose]
35 mM

Just for reference, paper PMC11261611 is where these values come from.
